Molecular target: CDK-9/Cyclin T1 (Homo sapiens)
Sequence (P50750 whole entry): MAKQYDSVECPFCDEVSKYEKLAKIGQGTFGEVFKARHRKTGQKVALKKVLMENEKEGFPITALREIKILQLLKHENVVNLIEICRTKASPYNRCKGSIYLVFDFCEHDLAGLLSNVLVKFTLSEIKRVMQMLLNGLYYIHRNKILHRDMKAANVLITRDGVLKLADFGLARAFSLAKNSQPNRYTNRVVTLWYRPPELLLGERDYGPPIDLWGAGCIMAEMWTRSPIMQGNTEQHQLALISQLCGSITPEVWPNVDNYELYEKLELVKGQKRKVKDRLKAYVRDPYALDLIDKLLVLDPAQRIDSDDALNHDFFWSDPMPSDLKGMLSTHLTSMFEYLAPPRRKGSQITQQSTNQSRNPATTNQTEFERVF
Sequence (O60563 whole entry partner): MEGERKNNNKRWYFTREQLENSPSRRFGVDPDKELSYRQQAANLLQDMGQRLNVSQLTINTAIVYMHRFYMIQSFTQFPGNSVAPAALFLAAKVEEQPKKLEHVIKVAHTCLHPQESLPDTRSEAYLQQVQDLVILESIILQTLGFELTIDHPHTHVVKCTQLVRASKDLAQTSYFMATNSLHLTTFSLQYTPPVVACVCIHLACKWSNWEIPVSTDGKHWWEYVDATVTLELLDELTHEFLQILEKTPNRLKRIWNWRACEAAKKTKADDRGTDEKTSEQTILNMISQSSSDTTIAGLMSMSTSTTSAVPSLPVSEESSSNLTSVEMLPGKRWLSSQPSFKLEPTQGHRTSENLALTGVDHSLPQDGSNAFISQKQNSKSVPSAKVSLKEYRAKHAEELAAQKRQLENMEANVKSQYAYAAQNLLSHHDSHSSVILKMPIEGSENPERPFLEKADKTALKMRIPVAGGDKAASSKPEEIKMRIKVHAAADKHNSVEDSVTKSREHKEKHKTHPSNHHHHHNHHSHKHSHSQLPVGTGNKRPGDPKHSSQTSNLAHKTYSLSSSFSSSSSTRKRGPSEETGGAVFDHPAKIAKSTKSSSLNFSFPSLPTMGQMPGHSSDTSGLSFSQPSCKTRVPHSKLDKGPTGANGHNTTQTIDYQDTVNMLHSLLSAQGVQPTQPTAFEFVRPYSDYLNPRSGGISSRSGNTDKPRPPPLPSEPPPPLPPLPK
Experiment: CDK inhibition assay, CDK-9/Cyclin T1 against substrate peptide, 33P-ATP
Type: biochemical
Conditions: at 500 nM; Table-6; read-out: In vitro CDK9 % of inhibition
Measured parameter: inhibition at 0.5 µM

INSERT INTO results (item_smiles, tgt, experimental_value) VALUES
  ('Cc1cccc(-c2cnc3[nH]cc(-c4ccnc(NC5CC5)n4)c3c2)c1', 'CDK-9/Cyclin T1 (Homo sapiens)', '> 70%');

Items follow; give inhibition at 0.5 µM for each.
1. c1cncc(-c2cnc3[nH]cc(-c4ccnc(NC5CC5)n4)c3c2)c1
2. O=Cc1ccc(-c2cnc3[nH]cc(-c4ccnc(NC5CC5)n4)c3c2)cc1
3. c1cc(-c2c[nH]c3ncc(-c4ccoc4)cc23)nc(NC2CC2)n1
4. CSc1ccc(-c2cnc3[nH]cc(-c4ccnc(NC5CC5)n4)c3c2)cc1
5. c1ccc2c(-c3cnc4[nH]cc(-c5ccnc(NC6CCCC6)n5)c4c3)nccc2c1
6. FC(F)(F)c1cccc(-c2cnc3[nH]cc(-c4ccnc(NC5CCCC5)n4)c3c2)c1
7. c1ccc2[nH]c(-c3cnc4[nH]cc(-c5ccnc(NC6CCCC6)n5)c4c3)cc2c1
8. c1cncc(-c2cnc3[nH]cc(-c4ccnc(NC5CCCC5)n4)c3c2)c1

1. > 50%
2. > 70%
3. > 70%
4. > 70%
5. > 50%
6. > 50%
7. > 50%
8. > 50%

Items follow; give inhibition at 0.5 µM for each.
1. Fc1cccc(-c2cnc3[nH]cc(-c4ccnc(NC5CCCC5)n4)c3c2)c1
2. FC(F)(F)Oc1ccc(-c2cnc3[nH]cc(-c4ccnc(NC5CC5)n4)c3c2)cc1
3. c1ccc2c(-c3cnc4[nH]cc(-c5ccnc(NC6CC6)n5)c4c3)nccc2c1
4. FC(F)(F)Oc1ccc(-c2cnc3[nH]cc(-c4ccnc(NC5CCCCCC5)n4)c3c2)cc1
5. c1ccc2sc(-c3cnc4[nH]cc(-c5ccnc(NC6CCCC6)n5)c4c3)cc2c1
6. Cc1cccc(-c2cnc3[nH]cc(-c4ccnc(NC5CCCC5)n4)c3c2)c1
7. FC(F)(F)c1ccc(-c2cnc3[nH]cc(-c4ccnc(NC5CC5)n4)c3c2)cc1
8. c1ccc2c(-c3cnc4[nH]cc(-c5ccnc(NC6CC6)n5)c4c3)cccc2c1

> 70%
> 70%
< 50%
> 50%
> 50%
> 50%
< 50%
> 50%

Items follow; give inhibition at 0.5 µM for each.
1. FC(F)(F)c1cccc(-c2cnc3[nH]cc(-c4ccnc(NC5CC5)n4)c3c2)c1
2. Cc1cccc(-c2cnc3[nH]cc(-c4ccnc(NC5CCCCCC5)n4)c3c2)c1
3. c1ccc2c(-c3cnc4[nH]cc(-c5ccnc(NC6CCCC6)n5)c4c3)cccc2c1
4. Cc1ccc(-c2cnc3[nH]cc(-c4ccnc(NC5CC5)n4)c3c2)cc1
5. Clc1ccc(-c2cnc3[nH]cc(-c4ccnc(NC5CCCC5)n4)c3c2)cc1
6. Fc1ccc(-c2cnc3[nH]cc(-c4ccnc(NC5CCCC5)n4)c3c2)cc1
7. Fc1cccc(-c2cnc3[nH]cc(-c4ccnc(NC5CCCCCC5)n4)c3c2)c1
8. FC(F)(F)c1ccc(-c2cnc3[nH]cc(-c4ccnc(NC5CCCCCC5)n4)c3c2)cc1

> 70%
> 50%
> 50%
> 70%
> 50%
> 50%
> 70%
< 50%

Items follow; give inhibition at 0.5 µM for each.
1. Fc1ccc(-c2cnc3[nH]cc(-c4ccnc(NC5CC5)n4)c3c2)cc1
2. Fc1cccc(-c2cnc3[nH]cc(-c4ccnc(NC5CC5)n4)c3c2)c1
3. FC(F)(F)c1ccc(-c2cnc3[nH]cc(-c4ccnc(NC5CCCC5)n4)c3c2)cc1

> 70%
> 70%
< 50%
